Endpoint: pIC50. System: VEGFR2 (Homo sapiens). Items follow.
Sequence (P35968 20-1356, species assumed): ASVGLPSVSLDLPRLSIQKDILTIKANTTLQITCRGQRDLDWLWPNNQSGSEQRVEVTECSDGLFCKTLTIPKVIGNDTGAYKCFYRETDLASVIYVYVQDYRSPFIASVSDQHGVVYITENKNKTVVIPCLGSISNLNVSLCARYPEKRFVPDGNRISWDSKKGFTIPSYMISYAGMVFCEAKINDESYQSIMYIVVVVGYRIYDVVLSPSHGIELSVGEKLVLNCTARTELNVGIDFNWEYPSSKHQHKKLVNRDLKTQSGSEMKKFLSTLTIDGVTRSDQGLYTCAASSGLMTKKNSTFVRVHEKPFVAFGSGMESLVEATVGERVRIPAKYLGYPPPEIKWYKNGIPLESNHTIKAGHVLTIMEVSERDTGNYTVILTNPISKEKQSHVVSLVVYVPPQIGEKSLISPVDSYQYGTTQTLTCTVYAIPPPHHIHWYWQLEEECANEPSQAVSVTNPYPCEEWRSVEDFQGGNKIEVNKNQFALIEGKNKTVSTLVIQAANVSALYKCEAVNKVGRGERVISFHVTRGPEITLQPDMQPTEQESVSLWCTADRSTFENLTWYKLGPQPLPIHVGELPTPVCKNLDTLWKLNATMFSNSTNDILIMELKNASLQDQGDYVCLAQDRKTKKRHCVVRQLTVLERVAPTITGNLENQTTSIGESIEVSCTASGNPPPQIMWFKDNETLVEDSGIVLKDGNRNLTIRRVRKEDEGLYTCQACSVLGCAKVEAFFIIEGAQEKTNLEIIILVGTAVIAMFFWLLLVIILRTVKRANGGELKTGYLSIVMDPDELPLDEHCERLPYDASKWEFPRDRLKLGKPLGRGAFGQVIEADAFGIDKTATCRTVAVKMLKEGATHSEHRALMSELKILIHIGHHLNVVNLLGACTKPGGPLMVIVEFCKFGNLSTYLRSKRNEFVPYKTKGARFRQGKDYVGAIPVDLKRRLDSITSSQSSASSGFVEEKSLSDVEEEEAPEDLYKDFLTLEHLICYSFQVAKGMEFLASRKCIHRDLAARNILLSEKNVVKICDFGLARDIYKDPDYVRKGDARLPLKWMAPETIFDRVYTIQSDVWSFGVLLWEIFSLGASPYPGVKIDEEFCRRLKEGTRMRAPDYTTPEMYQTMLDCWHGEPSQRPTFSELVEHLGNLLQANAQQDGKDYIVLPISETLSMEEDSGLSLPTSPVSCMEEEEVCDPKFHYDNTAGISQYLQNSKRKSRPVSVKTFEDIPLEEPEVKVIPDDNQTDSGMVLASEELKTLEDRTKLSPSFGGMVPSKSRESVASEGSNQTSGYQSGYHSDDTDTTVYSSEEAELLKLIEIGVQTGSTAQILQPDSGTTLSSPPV
pIC50: −log10 of the molar value.
QUANTITY: pIC50

1) O=C(Nc1ccc(Cl)c(C(=O)Nc2cnc(Nc3ccc(S(=O)(=O)CCCN4CCCC4)cc3)nc2)c1)c1cccc(C(F)(F)F)c1 [drawing 161] ... 8.54
2) O=C(Nc1ccc(Cl)c(C(=O)Nc2cnc(Nc3ccc(OC(=O)c4ccccc4)cc3)nc2)c1)c1cccc(C(F)(F)F)c1 ... 6.44
3) O=C(Nc1ccc(Cl)c(C(=O)Nc2cnc(Nc3ccc(OCCN4CCCC4)cc3)nc2)c1)c1cccc(F)c1 ... 7.39
4) O=C(Nc1ccc(Cl)c(C(=O)Nc2cnc(Nc3ccccc3)nc2)c1)c1cccc(C(F)(F)F)c1 [drawing 181] ... 8.02
5) O=C(Nc1ccc(Cl)c(C(=O)Nc2cnc(Nc3ccc(S(=O)(=O)C4CCNCC4)cc3)nc2)c1)c1cccc(C(F)(F)F)c1 [drawing 169] ... 8.35

---

Endpoint: IC50. System: UniProtKB P07947. Items follow.
Sequence (P07947 whole entry): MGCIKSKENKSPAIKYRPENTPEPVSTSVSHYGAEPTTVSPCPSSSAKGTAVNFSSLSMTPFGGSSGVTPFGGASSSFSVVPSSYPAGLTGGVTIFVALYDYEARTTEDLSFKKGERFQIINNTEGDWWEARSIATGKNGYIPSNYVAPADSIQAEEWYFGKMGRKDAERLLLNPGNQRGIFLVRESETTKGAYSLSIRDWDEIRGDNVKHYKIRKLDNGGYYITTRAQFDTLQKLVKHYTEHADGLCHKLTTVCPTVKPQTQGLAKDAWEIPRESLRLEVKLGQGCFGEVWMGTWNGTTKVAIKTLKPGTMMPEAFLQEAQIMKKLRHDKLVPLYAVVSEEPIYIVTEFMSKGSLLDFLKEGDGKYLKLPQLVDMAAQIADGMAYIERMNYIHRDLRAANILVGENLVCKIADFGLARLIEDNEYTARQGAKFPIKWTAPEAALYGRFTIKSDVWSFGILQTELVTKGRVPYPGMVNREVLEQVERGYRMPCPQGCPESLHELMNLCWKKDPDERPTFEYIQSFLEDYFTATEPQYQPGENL
QUANTITY: IC50

1) Cc1ccc(NC(=O)c2cccc(C(F)(F)F)c2)cc1C(=O)Nc1cnc(Nc2ccc(OCCN3CCCC3)cc2)nc1 [drawing 229] ... 1.3 nM
2) O=C(Nc1ccc(Cl)c(C(=O)Nc2cnc(Nc3ccc(S(=O)(=O)C4CCNCC4)cc3)nc2)c1)c1cccc(C(F)(F)F)c1 [drawing 228] ... 0.9 nM
3) Cc1ccc(NC(=O)c2cccc(C(F)(F)F)c2)cc1C(=O)Nc1cnc(Nc2cccc(OCCN3CCCC3)c2)nc1 [drawing 226] ... 0.93 nM

---

pIC50: −log10 of the molar value.
Endpoint: pIC50. System: human c-Src (Homo sapiens, UniProt P12931). Items follow.
Sequence (P12931 whole entry): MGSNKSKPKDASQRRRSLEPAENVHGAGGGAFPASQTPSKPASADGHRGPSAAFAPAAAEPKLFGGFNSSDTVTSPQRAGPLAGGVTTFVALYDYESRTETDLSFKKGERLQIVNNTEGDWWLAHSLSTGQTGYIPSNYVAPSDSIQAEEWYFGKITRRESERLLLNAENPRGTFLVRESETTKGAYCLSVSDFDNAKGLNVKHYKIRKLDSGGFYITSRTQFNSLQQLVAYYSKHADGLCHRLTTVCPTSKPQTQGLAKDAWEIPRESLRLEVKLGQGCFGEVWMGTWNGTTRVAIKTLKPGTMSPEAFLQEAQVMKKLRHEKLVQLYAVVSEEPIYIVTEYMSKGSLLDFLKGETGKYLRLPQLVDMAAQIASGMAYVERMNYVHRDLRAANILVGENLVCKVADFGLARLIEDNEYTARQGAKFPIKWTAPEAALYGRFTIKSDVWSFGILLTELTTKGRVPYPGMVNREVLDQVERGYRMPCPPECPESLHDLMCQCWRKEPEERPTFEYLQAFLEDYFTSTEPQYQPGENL
QUANTITY: pIC50

1. O=C(Nc1ccc(Cl)c(C(=O)Nc2cnc(Nc3ccc(OCCN4CCCC4)cc3)nc2)c1)c1cccc(F)c1 ... 8.52
2. Cc1ccc(NC(=O)Cc2cccc(C(F)(F)F)c2)cc1C(=O)Nc1cnc(Nc2cccnc2)nc1 ... 7.24
3. O=C(Nc1ccc(Cl)c(C(=O)Nc2cnc(Nc3ccc(CCCN4CCCC4)cc3)nc2)c1)c1cccc(C(F)(F)F)c1 [drawing 180] ... 8.59
4. CCOC(=O)c1cccc(Nc2ncc(NC(=O)c3cc(NC(=O)c4cccc(C(F)(F)F)c4)ccc3Cl)cn2)c1 ... 7.87
